STUDY_TARGET: COX-1 (Homo sapiens)
Construct: Die Messung der COX1 Hemmung erfolgte in HEL-Zellen nach der Methode von Berg et al; endogenous in cells
TEST_PROTOCOL: COX-1 inhibition in HEL cells (Tromboxan B2 by ELISA)
Experimental: In einer Variante wurden Testsubstanz und LPS zeitgleich eingesetzt. Die Messung der COX1 Hemmung erfolgte in HEL-Zellen nach der Methode von Berg et al., J. Pharmacol. Toxicol. Methods 37, 179-186 (1997). Dabei wurden HEL Zellen mit unterschiedlichen Konzentrationen der Testsubstanzen während 30 min inkubiert, anschliessend Arachidonsäure zugesetzt (Endkonzentration 30 µM), während 15 Min. inkubiert und das gebildete Tromboxan B2 mittels ELISA gemessen.
MEASURED_ENDPOINT: IC50 (µM)
Provide the reading as a plain figure in µM.

Reference set, count: 3
ENTRY_SMILES	MEASURED_ENDPOINT	OBSERVED_RESULT
O=C1c2cc(Cl)ccc2-n2c1nc1ccccc1c2=O	IC50	1
O=C1c2cc(Cl)ccc2-n2c1nc1cc(N3CCOCC3)ccc1c2=O	IC50	5
CN1CCN(c2ccc3c(=O)n4c(nc3c2)C(=O)c2cc(F)ccc2-4)CC1	IC50	1

Shift focus to the following entry.
Query: What is its IC50 for COX-1 (Homo sapiens)? Entry: Nc1ccc2nc3n(c(=O)c2c1)-c1ccc(F)cc1C3=O
Result: 5

====

STUDY_TARGET: COX-1 (Homo sapiens, UniProt P23219)
Construct: Die Messung der COX1 Hemmung erfolgte in HEL-Zellen nach der Methode von Berg et al; endogenous in cells
Sequence (P23219 24-599): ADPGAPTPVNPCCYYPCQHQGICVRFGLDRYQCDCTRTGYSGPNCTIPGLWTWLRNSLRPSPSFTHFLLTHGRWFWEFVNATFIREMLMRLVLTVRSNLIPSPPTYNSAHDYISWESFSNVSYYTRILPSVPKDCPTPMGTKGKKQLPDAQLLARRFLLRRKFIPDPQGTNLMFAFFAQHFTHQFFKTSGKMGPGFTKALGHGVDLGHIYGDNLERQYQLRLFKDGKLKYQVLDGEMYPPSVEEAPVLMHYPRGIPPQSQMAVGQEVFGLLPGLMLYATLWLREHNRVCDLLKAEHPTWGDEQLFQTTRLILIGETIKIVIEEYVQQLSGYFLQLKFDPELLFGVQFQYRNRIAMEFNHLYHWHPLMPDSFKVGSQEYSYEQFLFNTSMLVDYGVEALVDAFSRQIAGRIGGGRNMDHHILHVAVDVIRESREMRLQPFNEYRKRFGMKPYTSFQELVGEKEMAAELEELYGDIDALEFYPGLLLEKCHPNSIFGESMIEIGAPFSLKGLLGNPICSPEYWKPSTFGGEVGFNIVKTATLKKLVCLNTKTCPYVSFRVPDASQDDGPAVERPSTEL
TEST_PROTOCOL: COX-1 inhibition in HEL cells (Tromboxan B2 by ELISA)
Procedure: In einer Variante wurden Testsubstanz und LPS zeitgleich eingesetzt. Die Messung der COX1 Hemmung erfolgte in HEL-Zellen nach der Methode von Berg et al., J. Pharmacol. Toxicol. Methods 37, 179-186 (1997). Dabei wurden HEL Zellen mit unterschiedlichen Konzentrationen der Testsubstanzen während 30 min inkubiert, anschliessend Arachidonsäure zugesetzt (Endkonzentration 30 µM), während 15 Min. inkubiert und das gebildete Tromboxan B2 mittels ELISA gemessen.
MEASURED_ENDPOINT: IC50

As a guide, the following entries are already answered.
MOLECULE	STUDY_TARGET	MEASURED_ENDPOINT	OBSERVED_RESULT
CC1CN(c2cc3c(cc2F)C(=O)c2nc4ccccc4c(=O)n2-3)CCN1C(=O)OC(C)(C)C (stereo not drawn) [Verbindung 42]	COX-1 (Homo sapiens, UniProt P23219)	IC50	> 50 µM
CCOC(=O)c1ccc2c(c1)C(=O)c1nc3ccccc3c(=O)n1-2 [Verbindung 37]	COX-1 (Homo sapiens, UniProt P23219)	IC50	> 50 µM

Now for a further molecule.
Query: Look at this molecule and give its reported IC50. CCCCCCCCS(=O)(=O)c1ccc2c(c1)C(=O)c1nc3c(OC)cccc3c(=O)n1-2 [Verbindung 69]
Result: > 50 µM
